Test system: SK-OV-3 ovarian
assay_summary: NCI-60 one-dose screen, 48 h (100 = growth as untreated, 0 = no growth, -100 = all killed)
conditions_used: 10 µM unless noted
This is part of a sample that, as a whole, favours compounds with a hit. Of some 83,000 tested, about 20% had one in any assay.
readout: growth (%)
Note: unit % is implicit; provide only the numeric part.

compound | growth [%]
O=C1/C(=C/c2ccc(OCCCOc3ccc(Cl)cc3)cc2)N=C2SCCCN12 | 105
O=C1OCC2=C1C(c1ccncc1)c1cc3c(cc1N2CCO)OCO3 (stereo not given) | 87.3
CCCCCCN(CCCCCC)C(=N)c1ccnc2ccccc12 | 92.4

Task item: Which growth value belongs to Cn1cccc1-c1nc2c3c(ccc2[nH]1)C(=O)c1ccccc1C3=O ?
Reply: 118

Task item: Record request: growth value, item COc1ccc(-c2nc3ccc(-c4nc5ccc(N6CCN(c7ccncc7)CC6)cc5[nH]4)cc3[nH]2)cc1OC
Reply: 73.6

* * *

Parameter growth: see the listing below.
Tested on: SW-620 colon
assay_summary: NCI-60 one-dose screen, 48 h (100 = growth as untreated, 0 = no growth, -100 = all killed)
conditions_used: 10 µM unless noted
About 83,000 compounds went through this panel and 20% of them were active in at least one assay; those are over-represented in the sample as a whole.
Numeric answer only, unit % assumed.

Some molecules with recorded growth:
molecule | target_or_test_system | growth [%]
O=C(CN1CCCCC1)Nc1ccc2oc(=O)ccc2c1 | SW-620 colon | 97.9
O=C(N(c1ccccc1)c1ccccc1)n1ccc2nc(Cl)nc(Cl)c21 | SW-620 colon | 51.1
COc1ccc2c(c1)C(=O)/C(=C/c1ccccn1)CC2 | SW-620 colon | 57.5
CC(O)CN(CC(C)O)c1ccc2c(c1)Cc1cc([N+](=O)[O-])ccc1-2 (stereo not given) | SW-620 colon | 99

Shifting focus to the molecule that follows.
Task item: # get_value(readout='growth', item= O=C(CN(C(=O)Cn1c(=O)n2nnnc2c2ccccc21)c1ccccc1C(F)(F)F)Nc1ccc(C(F)(F)F)cc1 )
Reply: 105

* * *

Tested on: KM12 colon
assay_summary: NCI-60 one-dose screen, 48 h (100 = growth as untreated, 0 = no growth, -100 = all killed)
conditions_used: 10 µM unless noted
The panel holds about 83,000 compounds, 20% with a hit somewhere; the sample as a whole holds those more often.
Quick reference for growth among some compounds
Numbers only; they are read as %.

Here is how some compounds turned out for growth.
compound | target_or_test_system | unit_of_measurement | growth
O=C1NC(=O)C(c2ccc(Cl)cc2Cl)N1 (stereo not given) | KM12 colon | % | 104
C=CC(=O)Nc1cccc(-c2nc(SC)nc(Nc3ccccc3OC)c2C#N)c1 | KM12 colon | % | 82.8
COc1ccc(CCNc2nc3c(c(=O)n(Cc4ccc(Br)cc4)c(=O)n3C)n2C)cc1OC | KM12 colon | % | 100
COc1cc(/C=C/c2cc(/C=C/c3ccc(O)c(OC)c3)n(-c3c(Cl)cccc3Cl)c(=O)n2)ccc1O | KM12 colon | % | 12.1

// below: growth requested for another compound
Task item: # growth lookup, item CCOC(=O)c1sc2nc(-c3cccc(O)c3)nc(N3CCOCC3)c2c1C
Reply: 63.3

* * *

Test system: HS 578T breast
assay_summary: NCI-60 one-dose screen, 48 h (100 = growth as untreated, 0 = no growth, -100 = all killed)
conditions_used: 10 µM unless noted
Compounds without any hit were thinned out: in the full panel of roughly 83,000, 20% have a hit. The source made the active and inactive calls. How the source made its calls: active means growth percent below 10; inactive means the rest.
This listing pairs compounds with measured growth.

compound | growth
CCN(CC)c1ccc(/C=N\NC(=O)/C=C/C=C/c2ccc3c(c2)OCO3)c(O)c1 | 68.1% (inactive)
CCCc1cc(=O)n2c(C(=O)Nc3ccc(F)cc3)c(C(=O)Nc3ccc(F)cc3)sc2n1 | 6.12% [30 µM] (active)
CC1=CC(C)(C)Nc2ccc(Cc3ccc4c(c3)C(C)=CC(C)(C)N4)cc21 | 103% (inactive)

Task item: For the compound CC1(C)CC[C@]2(C(=O)Nc3ccccn3)CC[C@]3(C)C(=CC[C@@H]4[C@@]5(C)C/C(=C/c6cccnc6)C(=O)C(C)(C)[C@@H]5CC[C@]43C)[C@H]2C1 , what growth is on record?
Reply: 63.4% (inactive)

Task item: Which measured growth value corresponds to O=C1NC(=Nc2ccc(O)cc2)S/C1=C\c1cccc(Cl)c1 ?
Reply: 63.1% (inactive)

Task item: Recorded growth of CCCCn1cnc2c(Sc3c([N+](=O)[O-])ncn3C)nc(N)nc21 , please.
Reply: 101% (inactive)

Task item: So what does the record say about growth for COc1ccc(-c2cc(-c3ccc(Nc4ccnc5cc(Cl)ccc45)cc3)nc(N3CCOCC3)n2)cc1 ?
Reply: -11.4% (active)

Task item: Need growth, item COc1ccc(-n2nc(C)c3c(Nc4ccc(NC(=O)Nc5c(Cl)cccc5Cl)cc4)ncnc32)cc1
Reply: 71.7% (inactive)

Task item: # get_value(readout='growth', item= CCC([N+](=O)[O-])S(=O)(=O)c1ccc(C)cc1 (stereo not given) )
Reply: 129% (inactive)

Task item: Requested read-out: growth. Entry: Nc1ccn(-c2ccc(Br)cc2)c(=O)n1
Reply: 122% (inactive)

Task item: # query: growth of entry COc1ccc(-n2nc(C)c3c(Nc4ccc(NC(=O)Nc5cccc(C(F)(F)F)c5)cc4)ncnc32)cc1
Reply: -6.67% (active)

Task item: I'd like to know its growth. The compound in question is CC(=O)c1cc2c(N)c(C(=O)Nc3ccccc3)sc2nc1C
Reply: 69.8% (inactive)

Task item: What measured growth goes with COc1cc2c(cc1-c1c(C)noc1C)ncc1nc(C3CCC(F)(F)CC3)n([C@H](C)COC(F)F)c12 ?
Reply: 13.9% (inactive)

Task item: Quick one: growth of COc1ccc(/C=C/C(=O)c2cc(O)ccc2O)cc1 ?
Reply: 106% (inactive)

Task item: I'd like to know its growth. The compound in question is COc1ccc(CN2c3ccccc3Sc3ccccc32)c(C(F)(F)F)c1
Reply: 22.8% (inactive)

Task item: Name the recorded growth for O=C(C(=O)c1ccc2c(c1)OCO2)c1ccc2c(c1)OCO2 .
Reply: 96.3% (inactive)

Task item: GET /values?readout=growth&item= CC(=O)OC[C@H]1O[C@H](OC(C)=O)[C@H](NC(=O)/C=C/CCl)[C@@H](OC(C)=O)[C@@H]1OC(C)=O
Reply: 92% (inactive)

* * *

Tested on: TK-10 renal
assay_summary: NCI-60 one-dose screen, 48 h (100 = growth as untreated, 0 = no growth, -100 = all killed)
conditions_used: 10 µM unless noted
Compounds without any hit were thinned out: in the full panel of roughly 83,000, 20% have a hit. Active and inactive are the calls of the source. Rule for the calls: active = growth percent below 10; inactive = the rest.
readout: growth

Example compounds with recorded growth:
chemical_smiles | target_or_test_system | readout | value_observed
CCCSc1ccc2nc(NC(=O)OC)[nH]c2c1 | TK-10 renal | growth | 39.7% (inactive)
COc1cc2c(cc1O)CC[C@@H]1[C@@H]2CC[C@]2(C)[C@@H](NCCN(C)C)CC[C@@H]12 | TK-10 renal | growth | -95.8% (active)
CN(C)S(=O)(=O)c1cccc(-c2nc3sc4c(c3c(=O)[nH]2)CCCC4)c1 | TK-10 renal | growth | -20.5% (active)
N#CN1CC[C@H](C(=O)Nc2cc3cc(C(N)=O)ccc3cn2)C1 | TK-10 renal | growth | -17.7% (active)
CSc1ccc(-c2ccccc(=O)c2O)cc1 | TK-10 renal | growth | 33.4% (inactive)
COc1ccc(-c2nc3ccc(-c4nc5ccc(N6CCN(C)CC6)cc5[nH]4)cc3[nH]2)cc1OC | TK-10 renal | growth | 84.3% (inactive)
CN1CCN(c2nc(NCCCNc3ccnc4cc(Cl)ccc34)c3ccccc3n2)CC1 | TK-10 renal | growth | 116% (inactive)
COc1ccc2c(c1)C(=O)/C(=C/c1ccccn1)CC2 | TK-10 renal | growth | 55.7% (inactive)
COc1ccc(N=Nc2nccs2)c(O)c1 | TK-10 renal | growth | 51.3% (inactive)

Task item: Returns the measured growth for the input compound. Input: CCOc1ccc(-n2nc(C(=O)Nc3ccccc3)nc2-c2cc(OC)c(OC)c(OC)c2)cc1
Reply: 72.4% (inactive)

* * *

Test system: SF-295 CNS
assay_summary: NCI-60 one-dose screen, 48 h (100 = growth as untreated, 0 = no growth, -100 = all killed)
conditions_used: 10 µM unless noted
This is part of a sample that, as a whole, favours compounds with a hit. Of some 83,000 tested, about 20% had one in any assay.
readout: growth (%)
Answer with a number only, understood to be in %.

Past entries and their recorded results:
compound | value_observed
CCC([N+](=O)[O-])S(=O)(=O)c1ccc(C)cc1 (stereo not given) | 111
CSc1nc(NCCO)c(C#N)c(-c2cccc([N+](=O)[O-])c2)n1 | 98.3
CCOC(=O)c1c(C)oc2ncnc(N3CCN(C(=O)COc4ccc(SC)cc4)CC3)c12 | 88.2
COc1ccc2c(c1)C(=O)/C(=C/c1cccnc1)CC2 | 84.2

Note: attention shifts to another entry.
Task item: Quick check: growth of COc1ccc(-c2nc3ccc(-c4nc5ccc(N6CCN(C)CC6)cc5[nH]4)cc3[nH]2)cc1OC ?
Reply: 66.6
